In this section we review reported 1-BDC values for a set of compounds.
target: SARS-CoV-2 NSP3 Mac1 (Severe acute respiratory syndrome coronavirus 2); format: binding; conditions: PanDDA event map, 1 minus background density correction; crystal soaking of Mac1
Please respond with just the number, no unit label.

Consider the worked cases shown below.
OC[C@H]1CCCN(c2ncnc3[nH]c4cc(F)ccc4c23)C1 [Z7873] = 0.06
O=C(O)CC1CN(c2ncnc3[nH]ccc23)CCO1 (centres unmarked) [Z9572] = 0.09

[in] Look up 1-BDC of O=C(Nc1ccc(C(=O)NC2c3cccc(O)c3CC2C(=O)O)c(Cl)c1)NC1CC1 (centres unmarked) [Z8539_0055] and report it.
[out] 0.13

[in] Look up 1-BDC of O=C(OCCN1CCOC1=O)c1ncnc2[nH]ccc12 [Z8207] and report it.
[out] 0.38

This collection of values is drawn from paper PMC9926234.
